Parameter: P.E. binding ELISA OD. Scope: all listed entries.
system-name: T1, human IL-2Rβ (human, UniProt P14784 27-240, limits assumed)
T1 construct: recombinant protein, coated or immobilised; also called hu IL-2R; IL-2R beta
T1 sequence: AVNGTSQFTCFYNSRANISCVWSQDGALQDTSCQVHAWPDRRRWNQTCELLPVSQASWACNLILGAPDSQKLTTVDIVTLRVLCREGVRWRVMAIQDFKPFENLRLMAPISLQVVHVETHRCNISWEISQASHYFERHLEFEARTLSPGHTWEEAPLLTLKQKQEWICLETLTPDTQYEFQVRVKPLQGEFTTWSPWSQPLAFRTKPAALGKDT
experiment: P.E. ELISA, coated protein
Return type: number; implicit unit OD450 nm.

// solved cases for P.E. binding ELISA OD follow
binder	uom	P.E. binding ELISA OD
FJ1427 P035MP02D05 (VHH, soluble VHH in periplasmic extract; also called clone nr) VHH: QVQLVESGGGLVQPGESLGLSCAASGFTFSNYAMSWVRQAPGKGLEWVSSITGAGRGTDYADSVKGRFTISRDNAKNTLYLQMNSLKPEDTAVYYCAKYSSGTYYPPTPVRGTDYRGQGTQVTVSS	OD450 nm	0.118
FJ1427 P035MP02D01 (VHH, soluble VHH in periplasmic extract; also called clone nr; 100) VHH: QVQLQESGGGLVQTGGSLRLSCAASGSQFINDVMGWYRQVPGKQRELVADMDDTGSTKYADSVKGRFTILRDSVKNTAYLQMSNLKPEDTGVYYCKAGLWIKGRHSDYWGQGTQVTVSS	OD450 nm	0.573
FJ1427 P035MP02D11 (VHH, soluble VHH in periplasmic extract; also called clone nr; 180) VHH: QVQLQESGGGLVQAGDSLRISCAASGRIFSNYAMGWFRQAPGKETEFVAGITHLTSTTHYADSVKGRFTISRDNAKNTMHLQMNNLKPEDTALYYCAADRNIKITADWSYWGQGTQVTVAS	OD450 nm	0.463

Okay, now this binder:
Challenge: I would be grateful if you could share the reported P.E. binding ELISA OD for FJ1427 P035MP02E02 (VHH, soluble VHH in periplasmic extract; also called clone nr) VHH: EVQLVESGGGLVQTGGSLRLSCAASGSQFINDVMGWYRQVPGKQRELVADMDDTGSTKYADSVKGRFTILRDSVKNTAYLQMSNLKPEDTGVYYCKAGLWIKGRHSDYWGQGTQVTVSS .
Response given: 0.254
